Each record here notes measured EC50.
# studySystem: hMPV A1 F (human metapneumovirus)
# assayMethodText: ELISA on coated recombinant protein, OD 405 nm

binder: MPV482 (antibody, V domains shown) VH: EVQLVQSGGGVVQPGRSLRLSCAASGFTFSSFAMHWVRQAPGKGLEWVALISDDGNNKYHADSVKGRFTISRDSSKNTLYLQMNSLRGEDTAVYYCARDGSVVGAAAHCDHWGQGTLVTVSS VL: SYELTQPPSVSVSPGQTARITCSGDALPNQCAYWYQQKPGLAPVLLIYKDKERPSGIPERFSGSISGTTVTLTISGVQAEDEADYYCQSSDSSSTVVFGGGTKLTVL
EC50: 0.13 µg/mL
--
binder: MPV481 (antibody, V domains shown) VH: EVQLVQSGGGLVKPGGSLRLSCAASGLPFNNAWMNWVRQAPGKGLEWVGRIKSKIDGGTTEYAAPVKGRFTISRDDSENTLYLQMNSLRTEDTAVYYCTTEYYALLSGNYSDCWGQGTLVTVSS VL: DIVMTQSPFSLSLSPGERATLSCRASQSIKRAYLGWYQQKPGQAPRLLIYGASNRATGIPDRFSGSGSGTDFTLTISRLEPEDFAVYYCQQYGDSPGGSFGQGTKLEIR
EC50: 0.31 µg/mL
--
binder: MPV489 (antibody, V domains shown) VH: EVQLLESGGGLVQPGGSLRLSCAASKFTFNNYEMNWLRQAPGKGLEWVSSISSSGDTIHNADSVKGRFIISRDNAKNSLHLQMNGLRAEDTAVYYCARAGSGWAYDAFDIWGLGTMVTVSS VL: LSASVGDRVTITCRASQSISSFLNWYQQKPGKAPKLLMYAASSLPVGVPSRFSGSGSGPEYTLTISNLQPEDFATYYCQQGYSSPPTFGGGTRLEVK
EC50: 5 µg/mL

Numbers sourced from patent US20250188153A1.
